Molecular target: T1, cynomolgus monkey BCMA (cynomolgus monkey, UniProt A0A2K5UD97 1-53)
T1 construct: Soluble analyte in SPR; construct not described; also called cyBCMA; Cyno BCMA
T1 sequence (A0A2K5UD97 entry or part of it): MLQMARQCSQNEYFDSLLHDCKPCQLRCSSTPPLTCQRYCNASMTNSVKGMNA
Experiment: SPR, IgG immobilised, 37 C
Measure: kon (M⁻¹ s⁻¹)
Answer in M⁻¹ s⁻¹, number only, no unit symbol.

[[record]]
binder = "L3.PY/H2.QR (antibody, V domains shown, IgG) VH: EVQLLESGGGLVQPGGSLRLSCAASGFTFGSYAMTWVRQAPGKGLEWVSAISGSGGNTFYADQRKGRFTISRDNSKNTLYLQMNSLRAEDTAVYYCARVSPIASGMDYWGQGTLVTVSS VL: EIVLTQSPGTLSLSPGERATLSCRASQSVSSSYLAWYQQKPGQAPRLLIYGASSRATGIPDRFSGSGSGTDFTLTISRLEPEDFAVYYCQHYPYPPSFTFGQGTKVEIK"
unit_symbol = "M⁻¹ s⁻¹"
recorded_result = "2.18e+06"


If you can, please state the reported kon value of L3.PY/L1.AH/H2.HA (antibody, V domains shown, IgG) VH: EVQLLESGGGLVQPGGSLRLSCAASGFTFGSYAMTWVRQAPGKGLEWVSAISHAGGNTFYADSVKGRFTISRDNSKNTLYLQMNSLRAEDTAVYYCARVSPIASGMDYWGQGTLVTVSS VL: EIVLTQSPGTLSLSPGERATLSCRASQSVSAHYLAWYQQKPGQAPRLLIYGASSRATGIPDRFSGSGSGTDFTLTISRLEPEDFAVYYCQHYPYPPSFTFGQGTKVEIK .
2.58e+06

Okay, and L3.PY/L1.PS/H2.HA (antibody, V domains shown, IgG) VH: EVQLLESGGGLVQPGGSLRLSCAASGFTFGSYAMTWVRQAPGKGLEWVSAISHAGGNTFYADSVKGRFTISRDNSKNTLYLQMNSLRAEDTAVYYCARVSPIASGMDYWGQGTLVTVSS VL: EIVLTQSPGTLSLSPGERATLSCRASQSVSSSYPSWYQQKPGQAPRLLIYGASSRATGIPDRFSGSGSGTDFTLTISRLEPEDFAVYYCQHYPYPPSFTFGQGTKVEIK ?
1.45e+06

Okay, and L3.PY/H2.LT (antibody, V domains shown, IgG) VH: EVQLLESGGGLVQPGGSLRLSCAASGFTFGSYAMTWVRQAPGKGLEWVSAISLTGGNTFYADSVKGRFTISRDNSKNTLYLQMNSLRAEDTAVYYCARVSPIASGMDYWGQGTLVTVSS VL: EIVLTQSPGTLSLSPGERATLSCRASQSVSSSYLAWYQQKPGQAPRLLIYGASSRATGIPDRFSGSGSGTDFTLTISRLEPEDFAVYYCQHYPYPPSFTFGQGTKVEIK ?
2.09e+06

Okay, and L3.PY/H3.AQ (antibody, V domains shown, IgG) VH: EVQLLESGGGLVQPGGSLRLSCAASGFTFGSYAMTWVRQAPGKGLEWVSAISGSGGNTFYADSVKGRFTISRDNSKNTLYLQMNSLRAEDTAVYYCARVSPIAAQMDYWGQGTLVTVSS VL: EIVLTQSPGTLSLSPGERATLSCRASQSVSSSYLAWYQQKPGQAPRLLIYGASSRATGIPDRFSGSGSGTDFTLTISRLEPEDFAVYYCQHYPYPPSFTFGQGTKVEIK ?
2.77e+06
